Attribute: MIC
# Tested on: Staphylococcus epidermidis
# Method Summary: microbe, parasite or virus in culture
# Assay type: functional
# Measurement Parameters: ATCC 14990, 24 h
# Description: Antibacterial activity against Staphylococcus epidermidis ATCC 14990 after 24 hrs by CLSI broth microdilution assay
Parameter Measured: MIC (µM)

- Smiles Data: "CCCCc1cn(Cc2ccccc2)n[n+]1Cc1ccccc1"
  Comparison Sign: ">"
  Measured Number: 250
- Smiles Data: "Cc1ccc(-n2cc(-c3ccccc3)[n+](Cc3ccc(C(C)(C)C)cc3)n2)cc1"
  Comparison Sign: "="
  Measured Number: 8
- Smiles Data: "Cc1ccc(-[n+]2nn(Cc3ccc(C(C)(C)C)cc3)cc2-c2ccccc2)cc1"
  Comparison Sign: "="
  Measured Number: 16
- Smiles Data: "CCCCCCCCCCCCc1cn(Cc2ccccc2)n[n+]1Cc1ccc(C(C)(C)C)cc1"
  Comparison Sign: "="
  Measured Number: 2
- Smiles Data: "CCCCc1cn(-c2ccc(C)cc2)n[n+]1Cc1ccccc1"
  Comparison Sign: ">"
  Measured Number: 250
